tested on: Vaccinia virus; assay: Antiviral activity against Vaccinia virus infected in human skin fibroblasts assessed as inhibition of virus-induced cytopathogenicity; assay type: functional, Orthopoxvirus vaccinia

[
  {
    "molecule": "N#Cc1cn([C@H]2C[C@H](O)[C@@H](CO)O2)c(=O)[nH]c1=O",
    "ID50": "2.7 ×10⁻⁵ M"
  },
  {
    "molecule": "O=c1[nH]c(=O)n([C@H]2C[C@H](O)[C@@H](CO)O2)cc1I [IDOXURIDINE]",
    "ID50": "1.1 ×10⁻⁶ M"
  },
  {
    "molecule": "Nc1ncnc2c1ncn2[C@@H]1O[C@H](CO)[C@@H](O)[C@@H]1O [VIDARABINE]",
    "ID50": "2.6 ×10⁻⁵ M"
  },
  {
    "molecule": "O=c1[nH]c(=O)n([C@H]2C[C@H](O)[C@@H](CO)O2)cc1Br [BROXURIDINE]",
    "ID50": "6.5 ×10⁻⁷ M"
  },
  {
    "molecule": "N#Cc1cn([C@@H]2O[C@H](CO)[C@@H](O)[C@H]2O)c(=O)[nH]c1=O",
    "ID50": ">7 ×10⁻⁴ M"
  },
  {
    "molecule": "O=c1[nH]c(=O)n([C@H]2C[C@H](O)[C@@H](CO)O2)cc1F [FLOXURIDINE]",
    "ID50": "4 ×10⁻⁷ M"
  },
  {
    "molecule": "O=c1[nH]c(=O)n([C@H]2C[C@H](O)[C@@H](CO)O2)cc1Cl [CHLORODEOXYURIDINE]",
    "ID50": "1.5 ×10⁻⁶ M"
  },
  {
    "molecule": "O=c1[nH]c(=O)n([C@H]2C[C@H](O)[C@@H](CO)O2)cc1C(F)(F)F [TRIFLURIDINE]",
    "ID50": "1.3 ×10⁻⁶ M"
  }
]
